System: CAMK2G
condition.details: concentration: 1 μM, replicates: in singlicate; n = 1;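 also: KINOMEscan kinase panel screen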
reported.endpoint: %Inh (%)
Provide the reading as a plain figure in %.

smiles_structure=Cc1cccc(-c2nc(Nc3ccc4c(cnn4C)c3)c3ccccc3n2)n1 reported_endpoint=%Inh quantitative_result=0

According to the records, this molecule COc1cccc(C2=C(N(C)c3ccccc3)C(=O)NC2=O)c1 displays %Inh of 9

According to the records, this molecule CN1C(=O)C(Nc2cc(Cl)c(O)c(Cl)c2)=C(c2ccc(Cl)cc2)C1=O displays %Inh of 0

====

Tested on: PKN1
condition.details: concentration: 1 μM, replicates: in singlicate; n = 1
%Inh listing for selected molecules.
Provide the reading as a plain figure in %.

smiles_structure=COc1cc2nccc(Nc3ccc(OCc4ccc(NC(C)=O)cc4)cc3)c2cc1OC.Cl reported_endpoint=%Inh quantitative_result=44
smiles_structure=Nc1ncnc2c1ncn2-c1ccc(Cl)cc1 reported_endpoint=%Inh quantitative_result=0

Please turn your attention to the following entry.
According to the records, this molecule CCn1c(-c2nonc2N)nc2ccccc21 displays %Inh of 0

====

Test system: PIK3CB
condition.details: concentration: 1 μM, replicates: in singlicate; n = 1
reported.endpoint: %Inh (%)
Provide the reading as a plain figure in %.

smiles_structure=Cc1nc(N(C)[C@H]2CN(C(=O)CC#N)CC[C@H]2C)c2cc[nH]c2n1 system_name=PIK3CB unit_name=% quantitative_result=0
smiles_structure=Nc1n[nH]c2ncc(-c3ccccc3)cc12 system_name=PIK3CB unit_name=% quantitative_result=0
smiles_structure=COC(=O)c1c(-c2ccccc2)c2cc(Br)ccc2c(=O)n1Cc1ccc(S(C)(=O)=O)cc1 system_name=PIK3CB unit_name=% quantitative_result=28
smiles_structure=CCC(=O)c1c(-c2ccccc2)c2cc(Cl)ccc2c(=O)n1Cc1cc(S(C)(=O)=O)n(CCC(C)(C)O)n1 system_name=PIK3CB unit_name=% quantitative_result=26
smiles_structure=CCn1c(-c2ccoc2)nc2cnccc21 system_name=PIK3CB unit_name=% quantitative_result=0
smiles_structure=Cc1cccc(-c2nc(Nc3ccc4c(cnn4C)c3)c3ccccc3n2)n1 system_name=PIK3CB unit_name=% quantitative_result=3

Readout %Inh for COc1cc2nccc(Nc3ccc(OCc4ccc(NC(C)=O)cc4)cc3)c2cc1OC.Cl , test system PIK3CB, was 0

Readout %Inh for Nc1ncnc2c1ncn2-c1cccc(F)c1 , test system PIK3CB, was 0

Readout %Inh for COc1ccc(-c2cc3c(C)nc(N)nc3n([C@H]3CC[C@H](O)CC3)c2=O)cn1 , test system PIK3CB, was 100

====

Test system: CAMK1
condition.details: concentration: 1 μM, replicates: in singlicate; n = 1
# %Inh >= 4% gives y, anything below gives n

molecule="OCCCNc1nccc(-c2c(-c3cccc(C(F)(F)F)c3)nn3cc(C(F)(F)F)ccc23)n1 [GW630813]" system_name=CAMK1 label=y
molecule=Cc1ccc(-c2ccc3c(ccc4sc5c(c43)NC[C@@H](C)N=C5N(C)C)n2)cn1 system_name=CAMK1 label=n
molecule="O=C(Nc1ccc2c(c1)OCO2)NC1CCN(c2ccnc(NCc3ccc(F)cc3)n2)CC1 [GSK1379859]" system_name=CAMK1 label=y
molecule="Nc1nc(N)c2nc(-c3ccccc3)[nH]c2n1 [SKF-12778]" system_name=CAMK1 label=n

Would you say COC(=O)c1c(-c2ccccc2)c2cc(Br)ccc2c(=O)n1Cc1ccc(S(C)(=O)=O)cc1 shows %Inh at minimum 4%?
y

Would you say CCS(=O)(=O)c1ccc(OC)c(Nc2ncc(-c3ccc(F)cc3)o2)c1.Cl [GW591947] shows %Inh at minimum 4%?
n

Would you say CCC(=O)c1c(-c2ccccc2)c2cc(Cl)ccc2c(=O)n1Cc1ccc(C(=O)O)cc1 shows %Inh at minimum 4%?
n

Would you say COc1ccc(Nc2nccc(N3CCC(NS(=O)(=O)c4ccc(NC(C)=O)cc4)C3)n2)cc1 (stereo not shown) [GSK1379729] shows %Inh at minimum 4%?
y
